- experimental target: I1 imidazoline receptor
- assay notes: I1 imidazoline receptor binding assay ([3H]clonidine)
- condition label: [3H]clonidine 15 nM, bovine adrenal medulla glands, Cheng Prusoff equation
measurement type: pKi
The scale used: pKi is minus the common logarithm of the concentration in molar units.

Tell me pKi reported for C1COC(NC(C2CC2)C2CC2)=N1 [rilmenidine, reference compound]
7.08
